- Tested on: Plasmodium falciparum
- experiment: GSK_TCMDC: Inhibition of Plasmodium falciparum Dd2 in whole red blood cells, using parasite LDH activity as an index of growth. Test compounds present at 2uM
- Type: functional
Values of Inhibition greater than or equal to 80% map to satisfied; values below map to not satisfied.

>>> group("CC(Cc1ccc(OCCN2CCN(c3cccc(C(F)(F)F)c3)CC2)cc1)NCC(O)c1cccc(C(F)(F)F)c1.Cl (centres undefined)")
"satisfied"
>>> group("CCCCNC(=O)[C@@H](NC(=O)c1ccc(O)c(-c2ccc(Cl)c(Cl)c2)c1)C(C)C")
"satisfied"
>>> group("N#Cc1cc(C(=O)c2cc(Cl)ccc2O)cn(-c2cc(Cl)cc(Cl)c2)c1=O")
"not satisfied"
>>> group("CC1CC(C)CN(CCCNc2ccc(C(=O)Nc3ccc(C(F)(F)F)cc3)cc2[N+](=O)[O-])C1 (centres undefined)")
"satisfied"

Hello, I need to know if CN1CCN(c2ccc(-c3cccc(NC(=O)c4cccc([N+](=O)[O-])c4)c3)nn2)CC1 has measured Inhibition not below 80%. Thanks!
not satisfied

Hello, I need to know if Cc1ccc(-n2cc(CNCCc3nc(C)c[nH]3)c(-c3ccc(F)cc3)n2)cc1 has measured Inhibition not below 80%. Thanks!
not satisfied

Hello, I need to know if O=C(O)C(F)(F)F.c1cc(CN2CCN(c3ccncc3)CC2)cc(-c2ccc(-c3nc4ccccc4[nH]3)cc2)c1 has measured Inhibition not below 80%. Thanks!
satisfied

Hello, I need to know if Cl.O=C(Nc1ccc2c(c1)CNCC2)c1ccc(-c2ccc(Cl)cc2)cc1 has measured Inhibition not below 80%. Thanks!
not satisfied

Hello, I need to know if Cc1ccccc1NC(=O)NC1CCN(CCCCCNC(=O)/C=C/c2ccc(Cl)c(Cl)c2)CC1 has measured Inhibition not below 80%. Thanks!
not satisfied

Hello, I need to know if O=C(Nc1ccc2c(c1)CCN2C1CCN(Cc2ccc(C(F)(F)F)cc2F)C1)c1ccco1 (centres undefined) has measured Inhibition not below 80%. Thanks!
satisfied

Hello, I need to know if Nc1ncc(-c2ccc(Br)cc2)c(N)n1 has measured Inhibition not below 80%. Thanks!
not satisfied

Hello, I need to know if CCCNC(=O)C1Cc2cc(OC)c(OC)cc2C2(N1)C(=O)N(Cc1cccc(OC)c1)c1ccccc12 (centres undefined) has measured Inhibition not below 80%. Thanks!
not satisfied

Hello, I need to know if OC1CCC(Nc2ccc3ncc(-c4ccc5ccccc5c4)n3n2)CC1 (centres undefined) has measured Inhibition not below 80%. Thanks!
satisfied

Hello, I need to know if O=C(Nc1ccc(Br)c(C(F)(F)F)c1)c1cccc([N+](=O)[O-])c1 has measured Inhibition not below 80%. Thanks!
not satisfied

Hello, I need to know if O=C(NCC1CCC(C(=O)NCCN2CCCCC2)CC1)c1ccc(O)c(-c2ccc(Cl)c(Cl)c2)c1 (centres undefined) has measured Inhibition not below 80%. Thanks!
not satisfied
